Origin of values: patent US20090326072A1

System: plasma tyrosine
Test: Plasma tyrosine concentration kinetic profile in the rat following a single oral dose
Format: in vivo
Conditions: single oral dose 10 mg/kg, 48 hours post-dose
Let's look at some molecules and their measured Plasma Tyrosine Concentration.
outcomeMeasure: Plasma Tyrosine Concentration (nmol/mL)

>>> recordednumber("CS(=O)(=O)c1cc(C(F)(F)F)ccc1C(=O)c1cnoc1C1CC1 [Compound 3.01]")
110
>>> recordednumber("CS(=O)(=O)c1ccc(C(=O)C2C(=O)CCCC2=O)c(Cl)c1COCC(F)(F)F [Compound 3.18]")
313
>>> recordednumber("CS(=O)(=O)c1cc(Cl)ccc1C(=O)c1cnoc1C1CC1 [Compound 3.25]")
100
>>> recordednumber("Cc1cc(C(=O)C2=C([O-])CCCC2=O)c(C)c2c1S(=O)(=O)CCC21OCCO1.[K+] [Compound 3.11]")
993

====

Biological target: 4-hydroxyphenyl pyruvate dioxygenase (HPPD) (Rattus norvegicus)
pIC50: −log10 of the molar value.
outcomeMeasure: pIC50

>>> recordednumber("COCCOCc1nc(C(F)(F)F)ccc1C(=O)C1=C(O)C2CCC(C2)C1=O (stereo not shown)")
6.46

====

Molecular target: 4-hydroxyphenyl pyruvate dioxygenase (HPPD) (Rattus norvegicus, UniProt P32755)
Construct: rat liver cytosol (2.7 mg of protein/ml incubate); from tissue; host or cells: rat liver (cytosol, 110,000 g supernatant)
Sequence (P32755 whole entry): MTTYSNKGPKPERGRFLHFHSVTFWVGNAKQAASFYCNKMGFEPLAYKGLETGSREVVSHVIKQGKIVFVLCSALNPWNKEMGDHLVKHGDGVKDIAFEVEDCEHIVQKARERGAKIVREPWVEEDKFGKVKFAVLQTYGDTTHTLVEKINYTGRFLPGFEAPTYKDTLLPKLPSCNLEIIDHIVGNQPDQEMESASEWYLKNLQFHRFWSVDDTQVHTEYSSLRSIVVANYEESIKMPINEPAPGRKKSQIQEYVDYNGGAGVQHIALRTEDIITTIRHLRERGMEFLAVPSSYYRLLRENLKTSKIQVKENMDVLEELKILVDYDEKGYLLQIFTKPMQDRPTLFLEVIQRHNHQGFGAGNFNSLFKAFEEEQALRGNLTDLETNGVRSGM
Test: Determination of 4-hydroxyphenyl pyruvate dioxygenase (HPPD) enzyme activity in vitro (rate of oxygen consumption, rat liver cytosol)
Format: biochemical
Conditions: read-out: % Inhibition at 100 nM
t means recorded inhibition at 0.1 µM is 10% or above; f means it is below 10%.

>>> classassignment("Cc1c(C(=O)C2C=NN(C)C2=O)ccc(S(C)(=O)=O)c1C1=NOCC1 (stereo not shown) [Compound 3.20]")
"t"
>>> classassignment("Cc1cc(C(=O)C2=C([O-])CCCC2=O)c(C)c2c1S(=O)(=O)CCC21OCCO1.[K+] [Compound 3.11]")
"f"
>>> classassignment("COCCOCc1nc(C(F)(F)F)ccc1C(=O)C1=C(O)C2CCC(C2)C1=O (stereo not shown) [Compound 3.13]")
"t"
>>> classassignment("CS(=O)(=O)c1cc(C(F)(F)F)ccc1C(=O)c1cnoc1C1CC1 [Compound 3.01]")
"f"
>>> classassignment("Cc1nc(C(F)(F)F)ccc1C(=O)C1C(=O)C2CCC(C2)C1=O.[K+] (stereo not shown) [Compound 3.24]")
"f"
>>> classassignment("CS(=O)(=O)c1ccc(C(=O)C2C(=O)CCCC2=O)c(Cl)c1COCC(F)(F)F [Compound 3.18]")
"t"

====

Tested on: plasma tyrosine
Test: Plasma tyrosine concentration kinetic profile in the rat following a single oral dose
Format: in vivo
Conditions: single oral dose 10 mg/kg, 6 hours post-dose
Define the label as 1 (yes) when Plasma Tyrosine Concentration is strictly less than 500 nmol/mL and as 0 (no) in all remaining cases.

>>> classassignment("CS(=O)(=O)c1cc(Cl)ccc1C(=O)c1cnoc1C1CC1")
"1 (yes)"
>>> classassignment("CS(=O)(=O)c1cc(C(F)(F)F)ccc1C(=O)c1cnoc1C1CC1")
"1 (yes)"
>>> classassignment("Cc1cc(C(=O)C2=C([O-])CCCC2=O)c(C)c2c1S(=O)(=O)CCC21OCCO1.[K+]")
"0 (no)"
>>> classassignment("CC1=NN(C)C(=O)C1C(=O)c1ccc(C(F)(F)F)cc1S(C)(=O)=O (stereo not shown)")
"1 (yes)"
>>> classassignment("CCn1ncc(C(=O)c2ccc(S(C)(=O)=O)c(OCCOC)c2Cl)c1O")
"1 (yes)"
>>> classassignment("CS(=O)(=O)c1cc(C(F)(F)F)ccc1C(=O)C(C#N)C(=O)C1CC1 (stereo not shown)")
"1 (yes)"
>>> classassignment("Cc1nc(C(F)(F)F)ccc1C(=O)C1C(=O)C2CCC(C2)C1=O.[K+] (stereo not shown)")
"0 (no)"

====

Tested on: plasma tyrosine
Assay: Plasma tyrosine concentration kinetic profile in the rat following a single oral dose
Type: in vivo
Details: single oral dose 10 mg/kg, 48 hours post-dose
outcomeMeasure: Plasma Tyrosine Concentration (nmol/mL)

>>> recordednumber("CC1=NN(C)C(=O)C1C(=O)c1ccc(C(F)(F)F)cc1S(C)(=O)=O (stereo not drawn)")
100
>>> recordednumber("Cc1nc(C(F)(F)F)ccc1C(=O)C1C(=O)C2CCC(C2)C1=O.[K+] (stereo not drawn)")
2571
>>> recordednumber("CCn1ncc(C(=O)c2ccc(S(C)(=O)=O)c(OCCOC)c2Cl)c1O")
114
>>> recordednumber("CC1(C)C(=O)C(C(=O)c2ccc(C(F)(F)F)cc2[N+](=O)[O-])C(=O)C(C)(C)C1=O")
299
>>> recordednumber("CS(=O)(=O)c1cc(C(F)(F)F)ccc1C(=O)C(C#N)C(=O)C1CC1 (stereo not drawn)")
117
>>> recordednumber("CCOc1c(S(C)(=O)=O)ccc(C(=O)C2C(=O)CC(C)CC2=O)c1Cl (stereo not drawn)")
2377

====

Target: 4-hydroxyphenyl pyruvate dioxygenase (HPPD) (Rattus norvegicus)
Construct: rat liver cytosol (2.7 mg of protein/ml incubate); from tissue; host or cells: rat liver (cytosol, 110,000 g supernatant)
Assay: Determination of 4-hydroxyphenyl pyruvate dioxygenase (HPPD) enzyme activity in vitro (rate of oxygen consumption, rat liver cytosol)
Assay type: biochemical
Conditions: 100 nM test compound; rat liver cytosol; 3 min pre-incubation; read-out: % Inhibition at 100 nM
outcomeMeasure: inhibition at 0.1 µM (%)

>>> recordednumber("CCOc1c(S(C)(=O)=O)ccc(C(=O)C2C(=O)CC(C)CC2=O)c1Cl (stereo not drawn)")
44
>>> recordednumber("Cc1nc(C(F)F)ccc1C(=O)C1C(=O)C2CCC(C2)C1=O (stereo not drawn)")
20
>>> recordednumber("CCn1ncc(C(=O)c2ccc(S(C)(=O)=O)c(OCCOC)c2Cl)c1O")
40
>>> recordednumber("CS(=O)(=O)c1cc(Cl)ccc1C(=O)c1cnoc1C1CC1")
5
>>> recordednumber("CS(=O)(=O)c1cc(C(F)(F)F)ccc1C(=O)C(C#N)C(=O)C1CC1 (stereo not drawn)")
37
>>> recordednumber("CC1(C)C(=O)C(C(=O)c2ccc(C(F)(F)F)cc2[N+](=O)[O-])C(=O)C(C)(C)C1=O")
24

====

Let's look at some compounds and their measured inhibition at 0.3 µM.
Biological target: 4-hydroxyphenyl pyruvate dioxygenase (HPPD) (Rattus norvegicus)
Construct: rat liver cytosol (2.7 mg of protein/ml incubate); from tissue; host or cells: rat liver (cytosol, 110,000 g supernatant)
Test: Determination of 4-hydroxyphenyl pyruvate dioxygenase (HPPD) enzyme activity in vitro (rate of oxygen consumption, rat liver cytosol)
Type: biochemical
Settings: read-out: % inhibition at 300 nM
outcomeMeasure: inhibition at 0.3 µM (%)

>>> recordednumber("COCCOCc1nc(C(F)(F)F)ccc1C(=O)C1=C(O)C2CCC(C2)C1=O (centres unmarked)")
41
>>> recordednumber("CC1=NN(C)C(=O)C1C(=O)c1ccc(C(F)(F)F)cc1S(C)(=O)=O (centres unmarked)")
43
>>> recordednumber("CS(=O)(=O)c1cc(C(F)(F)F)ccc1C(=O)c1cnoc1C1CC1")
36
>>> recordednumber("Cc1cc(C(=O)C2=C([O-])CCCC2=O)c(C)c2c1S(=O)(=O)CCC21OCCO1.[K+]")
45
>>> recordednumber("Cc1nc(C(F)(F)F)ccc1C(=O)C1C(=O)C2CCC(C2)C1=O.[K+] (centres unmarked)")
34

====

Let's look at some molecules and their measured Plasma Tyrosine Concentration.
Tested on: plasma tyrosine
Test: Plasma tyrosine concentration kinetic profile in the rat following a single oral dose
Assay type: in vivo
Conditions: single oral dose 10 mg/kg, 3 hours post-dose
outcomeMeasure: Plasma Tyrosine Concentration

>>> result("CCn1ncc(C(=O)c2ccc(S(C)(=O)=O)c(OCCOC)c2Cl)c1O")
"289 ± 35.6 nmol/mL"
>>> result("Cc1nc(C(F)(F)F)ccc1C(=O)C1C(=O)C2CCC(C2)C1=O.[K+] (stereo not shown)")
"313 ± 49.9 nmol/mL"
>>> result("CS(=O)(=O)c1cc(Cl)ccc1C(=O)c1cnoc1C1CC1")
"267 ± 19.4 nmol/mL"
>>> result("Cc1cc(C(=O)C2=C([O-])CCCC2=O)c(C)c2c1S(=O)(=O)CCC21OCCO1.[K+]")
"338 ± 48.9 nmol/mL"
>>> result("CS(=O)(=O)c1cc(C(F)(F)F)ccc1C(=O)C(C#N)C(=O)C1CC1 (stereo not shown)")
"299 ± 18.8 nmol/mL"
>>> result("CC1(C)C(=O)C(C(=O)c2ccc(C(F)(F)F)cc2[N+](=O)[O-])C(=O)C(C)(C)C1=O")
"307 ± 28.0 nmol/mL"
>>> result("CS(=O)(=O)c1ccc(C(=O)C2C(=O)CCCC2=O)c(Cl)c1COCC(F)(F)F")
"303 ± 3.9 nmol/mL"
>>> result("CS(=O)(=O)c1cc(C(F)(F)F)ccc1C(=O)c1cnoc1C1CC1")
"276 ± 12.9 nmol/mL"
>>> result("CCOc1c(S(C)(=O)=O)ccc(C(=O)C2C(=O)CC(C)CC2=O)c1Cl (stereo not shown)")
"319 ± 43.5 nmol/mL"
>>> result("CC1=NN(C)C(=O)C1C(=O)c1ccc(C(F)(F)F)cc1S(C)(=O)=O (stereo not shown)")
"300 nmol/mL"
